# Test system: NCI-H226 lung
# Method: NCI-60 one-dose screen, 48 h (100 = growth as untreated, 0 = no growth, -100 = all killed)
# Condition Set: 10 µM unless noted
Compounds without any hit were thinned out: in the full panel of roughly 83,000, 20% have a hit.
Recorded Metric: growth (%)
Note: unit % is implicit; provide only the numeric part.

Compound: Cc1ccc(CSc2nc(-c3ccc(Cl)cc3)c(C#N)c(N3CCNCC3)n2)cc1
growth [%]: 90.2
//
Compound: COc1cccc(/C=C(/C)c2ccc3cccc(OC)c3[o+]2)c1O
growth [%]: 103
//
Compound: NC(N)=Nc1ccc(Oc2ccc(Nc3ccc(Cl)c(C(F)(F)F)c3)cc2)cc1
growth [%]: 48.9
//
Compound: CNC1CCc2c(sc(NC(=O)c3ccc(C(C)(C)C)cc3)c2C(N)=O)C1 (stereo not given)
growth [%]: 77.3
//
Compound: Cc1ccc2sc3c(c2c1)OC(N)=C(C#N)C3c1cccc(F)c1 (stereo not given)
growth [%]: -22.2
//
Compound: COc1ccc(/C(N)=N/C(N)=N/c2nc3ccccc3s2)cc1
growth [%]: 77.8
//
Compound: O=C(/C=C/c1ccc(F)cc1)c1ccc(O)cc1
growth [%]: 105
//
Compound: COc1ccc(/C=C(/C)c2ccc3ccc(OC)cc3[o+]2)c(O)c1
growth [%]: 70.9
//
Compound: COc1cc2nc(Cl)nc(Nc3cccc(C4=Nc5c(N)nc(N)nc5NC(c5ccc(Br)cc5)C4)c3)c2cc1OC (stereo not given)
growth [%]: 93

Measured growth for this entry Nc1ncc(-c2ccc3ncnc(N4CCc5cc(F)c(F)cc54)c3c2)cn1 on NCI-H226 lung: 29.1

Origin of the recorded values: PubChem BioAssay (NCI)
